B1: TPR 5TU (parent)
chain: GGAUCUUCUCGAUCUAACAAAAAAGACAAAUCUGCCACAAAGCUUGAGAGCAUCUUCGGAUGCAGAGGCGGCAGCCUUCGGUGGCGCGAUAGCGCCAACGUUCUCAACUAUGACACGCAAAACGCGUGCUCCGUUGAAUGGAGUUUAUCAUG

- Variants of: B1
- assay.explanation: polymerase ribozyme fitness, log enrichment relative to wild type (log ratio); higher = more active; in vitro selection for triplet polymerase activity
Variants at the floor of the assay were thinned out.
metric: polymerase ribozyme fitness (log ratio)
Form rule: numeric answer, no unit written next to it.

>>> df
      variant_notation  endpoint_result
0  A40U A41C A49G C96A            -1.32

# polymerase ribozyme fitness (log ratio) of U53A A89C G94A G141C = -3.63

# polymerase ribozyme fitness (log ratio) of A91G A98U = -3.95

# polymerase ribozyme fitness (log ratio) of A41U A89U C93U G117U A147U = -2.89

# polymerase ribozyme fitness (log ratio) of C38U A107C = -3.45

# polymerase ribozyme fitness (log ratio) of G59C A142C = -0.57

# polymerase ribozyme fitness (log ratio) of G80C C96U = -3.79

Origin of values: the RNAGym collection of RNA variant scans (doi:10.1073/pnas.2313332121)
